# System: C. neoformans lysis, adenylate kinase release luminescence, 4 h
# Measurement notes: fungal lysis via adenylate kinase leakage – AK release luminescence, dry powder, set 3, dose response (AID 743302)
Calls of active or inactive are those of the source.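 Rule for the calls: active = fitted curve rises past activity 40 at a concentration no higher than the top valid tested dose; inconclusive = flat curve at 30 to 70 percent, or poor fit; inactive = the rest, including activity in the opposite direction.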
Return exactly one item of active, inactive

Would you please look over these solved cases?
Req: Entry `CC(C)(C)c1ccc(OCCn2cnc3ccccc32)cc1` : call = ?
Resp: active

Req: Entry `Cc1ccccc1OCCn1c(=S)[nH]c2ccccc21` : call = ?
Resp: active

Req: Entry `c1ccc(OCCn2cnc3ccccc32)cc1` : call = ?
Resp: inactive

Req: Entry `Fc1ccccc1OCCn1c(=S)[nH]c2ccccc21` : call = ?
Resp: active

Req: Entry `CCOc1ccc(OCCn2c(=S)[nH]c3ccccc32)cc1` : call = ?
Resp: active

Further cases:
Req: Entry `Cc1ccc(C(C)C)c(OCCn2c(=S)[nH]c3c(Cl)cccc32)c1` : call = ?
Resp: inactive

Req: Entry `Cc1ccc(OCCn2c(C)nc3ccccc32)cc1` : call = ?
Resp: inactive

Req: Entry `Cc1ccc(C(C)C)c(OCCn2c(=S)[nH]c3cc(F)ccc32)c1` : call = ?
Resp: active

Req: Entry `CC(C)c1ccccc1NCCn1c(=S)[nH]c2ccccc21` : call = ?
Resp: active

====

# Test system: C. neoformans lysis, adenylate kinase release luminescence, 4 h
# Measurement notes: fungal lysis via adenylate kinase leakage – AK release luminescence, dry powder, set 3, dose response (AID 743302)
Calls of active or inactive are those of the source.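 Rule for the calls: active = fitted curve rises past activity 40 at a concentration no higher than the top valid tested dose; inconclusive = flat curve at 30 to 70 percent, or poor fit; inactive = the rest, including activity in the opposite direction.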
Return exactly one item of t = active, f = inactive

Would you please look over these solved cases?
Req: Entry `Cc1cccc(OCCn2c(=S)[nH]c3ccccc32)c1C` : call = ?
Resp: f

Req: Entry `Cc1cccc2[nH]c(=S)n(CCOc3ccccc3)c12` : call = ?
Resp: t

Req: Entry `COc1cccc(OCCn2c(=S)[nH]c3ccccc32)c1` : call = ?
Resp: f

Req: Entry `Cc1ccc(OCCn2cnc3ccccc32)c(C(C)C)c1` : call = ?
Resp: t

Req: Entry `O=c1[nH]c2ccccc2n1CCOc1ccccc1` : call = ?
Resp: f

Consider the record given below.
Req: Entry `S=c1[nH]c2ccccc2n1CCOc1ccccc1Cl` : call = ?
Resp: t

====

# Test system: C. neoformans lysis, adenylate kinase release luminescence, 4 h
# Measurement notes: fungal lysis via adenylate kinase leakage – AK release luminescence, dry powder, set 3, dose response (AID 743302)
Activity calls are given as the source filed them.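 Rule for the calls: active = fitted curve rises past activity 40 at a concentration no higher than the top valid tested dose; inconclusive = flat curve at 30 to 70 percent, or poor fit; inactive = the rest, including activity in the opposite direction.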
Assay readout: AC40

// solved cases for AC40 follow
Req: What value of AC40 has been recorded for this entry: `S=c1[nH]c2ccccc2n1CCOc1ccc(Cl)cc1`
Resp: 1.19 µM

Req: What value of AC40 has been recorded for this entry: `Fc1ccc2[nH]c(=S)n(CCOc3ccccc3)c2c1`
Resp: > 15 µM (inactive)

Req: What value of AC40 has been recorded for this entry: `Cc1ccc(C(C)C)c(OCCn2c(=S)[nH]c3ccc(F)cc32)c1`
Resp: 1.06 µM

Further cases:
Req: What value of AC40 has been recorded for this entry: `Cc1cccc(OCCn2c(=S)[nH]c3ccccc32)c1`
Resp: 0.91 µM

Req: What value of AC40 has been recorded for this entry: `Cc1cccc(OCCn2c(=S)[nH]c3ccc(C(F)(F)F)cc32)c1`
Resp: 14.3 µM
